Target: MMP-9 (Homo sapiens, UniProt P14780)
Sequence (P14780 107-707 limits assumed): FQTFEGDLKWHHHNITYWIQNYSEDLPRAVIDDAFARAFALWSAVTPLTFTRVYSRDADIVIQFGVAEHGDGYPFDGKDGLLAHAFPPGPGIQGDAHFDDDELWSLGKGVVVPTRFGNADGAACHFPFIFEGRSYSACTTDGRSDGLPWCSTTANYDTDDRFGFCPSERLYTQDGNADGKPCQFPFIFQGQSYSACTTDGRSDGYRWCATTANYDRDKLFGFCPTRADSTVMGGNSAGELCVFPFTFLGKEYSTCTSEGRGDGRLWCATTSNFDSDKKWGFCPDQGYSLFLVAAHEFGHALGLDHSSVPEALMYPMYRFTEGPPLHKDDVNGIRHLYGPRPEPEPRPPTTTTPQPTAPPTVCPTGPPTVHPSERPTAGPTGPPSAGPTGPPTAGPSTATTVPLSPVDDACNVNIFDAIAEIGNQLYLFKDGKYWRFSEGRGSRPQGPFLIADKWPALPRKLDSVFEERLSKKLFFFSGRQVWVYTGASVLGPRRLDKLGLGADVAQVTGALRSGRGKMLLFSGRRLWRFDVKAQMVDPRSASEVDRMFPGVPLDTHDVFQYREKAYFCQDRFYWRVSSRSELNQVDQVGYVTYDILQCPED
Experiment: MMP-9 cleavability of hybrid hydrogels (released particles seen under optical microscope)
Type: biochemical
Design: purchased Merck
Conditions: 3 μg/ml MMP-9 in PBS, 37° C., 20 hours
Protocol: Each hybrid hydrogel of 20 μL volume in a 500 μL Eppendorf tube was incubated at 37° C. with 3 μg/ml of MMP-9 (83 kDa, Merck) in PBS buffer (DPBS/modified, without calcium and magnesium, HyClone™). In a control experiment, another hybrid hydrogel with the same composition was immersed in PBS buffer without MMP-9. […]
measurement label: cleavability of hybrid hydrogel crosslinked with the peptide by MMP-9

GCRR-AVRW↓LLTA-RRCG (GCRRAVRWLLTARRCG; GCRR-AVRWLLTA-RRCG) [peptide (3)]: not cleaved
GCRD-LGRM↓GLPGK-DRCG (GCRDLGRMGLPGKDRCG; GCRD-LGRMGLPGK-DRCG) [peptide (6), spacer GCRD, same substrate as peptide (2)]: not cleaved
GCRR-LGRM↓GLPGK-RRCG (GCRRLGRMGLPGKRRCG; GCRR-LGRMGLPGK-RRCG) [peptide (2), spacer GCRR, same substrate as peptide (6)]: not cleaved

The values you see were collected from patent US20230039279A1.
